assay: DSSTox (CPDBAS) Carcinogenic Potency Database Summary MultiCellCall Results; conditions: animal carcinogenicity bioassays, multi-cell call summary
Activity calls are given as the source filed them.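 How the source made its calls: active means tumour findings in long-term animal cancer tests in more than one sex, species or organ; inactive means no tumour finding and more than one negative test.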
Could you please pick one outcome from this set? true (1) for active, false (0) for inactive

Worked set:
COMPOUND	DISCRETE LABEL
Cc1cc(N)ccc1N	false (0)
OCc1ccccc1	false (0)
Oc1cccc2cccnc12	false (0)
Oc1ccc(-c2ccccc2)cc1	false (0)

Record lookup: outcome of this test for CN(CCCC(O)c1cccnc1)N=O (stereo unspecified) ?
true (1)

Record lookup: outcome of this test for O=NN(c1ccccc1)c1ccccc1 ?
true (1)

====

assay: DSSTox (CPDBAS) Carcinogenic Potency Database Summary MultiCellCall Results; conditions: animal carcinogenicity bioassays, multi-cell call summary
Active and inactive are the calls of the source.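 How the source made its calls: active means tumour findings in long-term animal cancer tests in more than one sex, species or organ; inactive means no tumour finding and more than one negative test.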
ASSAY READOUT: outcome

The cases that follow already have their outcome on record.
COMPOUND	ASSAY READOUT	MEASUREMENT
CC(O)CN(CCO)N=O (centres undefined)	outcome	active; multisite active
Cc1cc(C)nc(-c2ccc([N+](=O)[O-])o2)n1	outcome	active; multisite active
C[C@]12CC[C@H](O)CC1=CC[C@@H]1[C@@H]2CC[C@]2(C)C(=O)CC[C@@H]12	outcome	active; multisex active
COc1ccc(C(=O)Nc2c(Cl)cncc2Cl)cc1OC1CCCC1	outcome	active; multisex active
N#Cc1c(Cl)c(Cl)c(Cl)c(C#N)c1Cl	outcome	active; multisex active

Here's the next entry for you.
Tell us which outcome value is on record for O=S(=O)([O-])[O-].[Cd+2]
active; multisex active
